Experiment: The minimum inhibitory concentration was measured against Herpes simplex virus type 1 (KOS strain) on E6SM cells
Type: functional
Conditions: Human alphaherpesvirus 1
# key: entry, value: MIC
Write it as a number; the unit µg/mL goes unstated.

Worked set:
1. Cc1cnc2nc3c(c(O)n12)NCN3COCCO = 2.1
2. Nc1nc2c(ncn2COC(CO)CO)c(=O)[nH]1 = 0.003

Please look at the following compound next.
Q: Recall and state the measured MIC for `CC(C)(C)c1cn2c(O)c3c(nc2n1)N(COCCO)CN3` .
A: 4.5
